Recorded values, source patent US11814435B2.

The molecules listed here are annotated with their ka (1/Ms) huBCMA @ 37° C..
Target: T1, hBCMA (human BCMA) (Homo sapiens, UniProt Q02223)
T1 sequence (Q02223 1-184): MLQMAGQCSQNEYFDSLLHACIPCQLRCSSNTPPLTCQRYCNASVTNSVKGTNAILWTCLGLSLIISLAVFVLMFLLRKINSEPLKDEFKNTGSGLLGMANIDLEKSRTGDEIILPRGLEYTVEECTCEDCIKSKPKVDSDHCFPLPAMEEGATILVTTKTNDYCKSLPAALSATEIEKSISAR
Experiment: Kinetics and affinity of hBCMA/human IgG interactions by SPR (Bio-Rad Proteon XPR36)
Format: binding
Settings: huBCMA, 37° C.
Report the figure in M⁻¹ s⁻¹ without appending any unit label.

Solved entries (count: 5):
ka (1/Ms) huBCMA @ 37° C. lookup needed for L3.PY/L1.PS/H2.QR: anti-BCMA antibody (antibody, V domains shown) VH: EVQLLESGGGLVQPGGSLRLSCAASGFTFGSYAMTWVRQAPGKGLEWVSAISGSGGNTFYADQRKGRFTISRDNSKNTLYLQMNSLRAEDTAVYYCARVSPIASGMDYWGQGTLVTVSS VL: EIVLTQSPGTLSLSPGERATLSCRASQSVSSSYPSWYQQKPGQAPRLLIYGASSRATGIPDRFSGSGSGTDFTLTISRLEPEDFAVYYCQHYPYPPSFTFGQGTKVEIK , thanks.
3.97e+06

ka (1/Ms) huBCMA @ 37° C. lookup needed for L3.PY/L3.KF/H3.TAQ: anti-BCMA antibody (antibody, V domains shown) VH: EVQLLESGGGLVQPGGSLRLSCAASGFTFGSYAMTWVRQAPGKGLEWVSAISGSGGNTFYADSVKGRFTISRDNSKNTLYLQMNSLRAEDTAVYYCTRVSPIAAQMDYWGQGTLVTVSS VL: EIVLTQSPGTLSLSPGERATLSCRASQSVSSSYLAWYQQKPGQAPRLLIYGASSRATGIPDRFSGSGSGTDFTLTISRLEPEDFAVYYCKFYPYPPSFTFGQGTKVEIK , thanks.
2.82e+06

ka (1/Ms) huBCMA @ 37° C. lookup needed for L3.PY/L3.KF/H3.AE: anti-BCMA antibody (antibody, V domains shown) VH: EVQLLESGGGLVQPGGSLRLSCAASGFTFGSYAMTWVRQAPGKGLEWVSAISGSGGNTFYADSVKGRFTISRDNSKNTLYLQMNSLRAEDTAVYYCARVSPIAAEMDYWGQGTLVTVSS VL: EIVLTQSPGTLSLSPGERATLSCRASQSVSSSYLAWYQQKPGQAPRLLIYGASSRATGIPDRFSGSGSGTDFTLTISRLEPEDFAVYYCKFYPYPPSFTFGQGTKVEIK , thanks.
3.07e+06

ka (1/Ms) huBCMA @ 37° C. lookup needed for L3.PY/L1.FF/H2.YQ: anti-BCMA antibody (antibody, V domains shown) VH: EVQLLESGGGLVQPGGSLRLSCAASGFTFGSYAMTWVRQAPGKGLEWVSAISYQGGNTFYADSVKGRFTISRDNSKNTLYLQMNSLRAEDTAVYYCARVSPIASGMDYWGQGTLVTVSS VL: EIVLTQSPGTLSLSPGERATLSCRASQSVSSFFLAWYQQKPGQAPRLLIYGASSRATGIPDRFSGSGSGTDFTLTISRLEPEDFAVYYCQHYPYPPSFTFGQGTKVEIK , thanks.
3.32e+06

ka (1/Ms) huBCMA @ 37° C. lookup needed for L3.PY/L3.KF/H2.DY: anti-BCMA antibody (antibody, V domains shown) VH: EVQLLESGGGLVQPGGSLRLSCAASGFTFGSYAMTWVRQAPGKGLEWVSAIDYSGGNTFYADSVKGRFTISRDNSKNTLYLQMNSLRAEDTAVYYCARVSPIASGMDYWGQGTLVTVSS VL: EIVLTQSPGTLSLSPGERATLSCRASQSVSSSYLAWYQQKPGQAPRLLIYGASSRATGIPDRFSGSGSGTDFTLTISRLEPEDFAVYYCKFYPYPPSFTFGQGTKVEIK , thanks.
2.74e+06

Others:
ka (1/Ms) huBCMA @ 37° C. lookup needed for L3.PY/L3.KY/H2.YQ: anti-BCMA antibody (antibody, V domains shown) VH: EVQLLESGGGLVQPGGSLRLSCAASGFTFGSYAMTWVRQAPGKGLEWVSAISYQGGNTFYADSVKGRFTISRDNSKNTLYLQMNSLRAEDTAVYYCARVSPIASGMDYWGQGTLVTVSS VL: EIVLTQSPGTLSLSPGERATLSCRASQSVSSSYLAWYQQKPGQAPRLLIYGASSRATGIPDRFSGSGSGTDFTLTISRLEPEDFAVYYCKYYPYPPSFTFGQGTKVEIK , thanks.
2.14e+06

ka (1/Ms) huBCMA @ 37° C. lookup needed for L3.PY/L1.PH/H3.AE: anti-BCMA antibody (antibody, V domains shown) VH: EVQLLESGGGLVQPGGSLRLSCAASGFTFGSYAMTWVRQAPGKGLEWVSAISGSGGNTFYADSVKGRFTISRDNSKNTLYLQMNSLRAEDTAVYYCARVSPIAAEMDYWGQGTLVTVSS VL: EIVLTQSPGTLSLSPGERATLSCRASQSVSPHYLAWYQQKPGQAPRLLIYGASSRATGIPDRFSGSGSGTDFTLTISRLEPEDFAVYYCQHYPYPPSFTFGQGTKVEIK , thanks.
3.68e+06

ka (1/Ms) huBCMA @ 37° C. lookup needed for L3.PY/L1.FF/H3.YA: anti-BCMA antibody (antibody, V domains shown) VH: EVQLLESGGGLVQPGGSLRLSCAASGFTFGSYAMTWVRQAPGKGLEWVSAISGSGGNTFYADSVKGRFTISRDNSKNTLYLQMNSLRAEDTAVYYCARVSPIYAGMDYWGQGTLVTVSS VL: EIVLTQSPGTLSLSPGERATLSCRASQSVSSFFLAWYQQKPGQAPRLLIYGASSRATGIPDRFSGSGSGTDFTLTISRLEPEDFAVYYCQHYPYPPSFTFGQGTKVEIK , thanks.
3.5e+06

ka (1/Ms) huBCMA @ 37° C. lookup needed for L3.PY/L3.KF/H2.LT: anti-BCMA antibody (antibody, V domains shown) VH: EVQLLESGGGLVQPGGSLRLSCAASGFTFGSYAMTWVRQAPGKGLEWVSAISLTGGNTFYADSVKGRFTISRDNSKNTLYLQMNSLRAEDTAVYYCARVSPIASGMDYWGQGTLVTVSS VL: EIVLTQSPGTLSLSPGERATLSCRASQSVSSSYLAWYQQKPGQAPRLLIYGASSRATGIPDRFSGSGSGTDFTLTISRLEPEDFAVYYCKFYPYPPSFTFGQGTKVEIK , thanks.
2.75e+06
